As a worked illustration, we turn to SFV replication % left (surviving fraction, remaining percentage of SFV replication) data collected for SFV-Rluc.

1) NCCN1C(=O)CN=C(c2ccccc2F)c2cc(Cl)ccc21 [Desalkylflurazepam]; 68.5%
2) CC(C)Cc1ccc(C(C)C(=O)O)cc1 (stereo not drawn) [Ibuprofen]; 92.8%

Now examine the next entry.
Kindly state the measured SFV replication % left (surviving fraction, remaining percentage of SFV replication) obtained for C[N+]1(C)[C@@H]2CC[C@H]1C[C@@H](OC(=O)C(CO)c1ccccc1)C2 (stereo partly drawn) [Methylatropine bromide] with SFV-Rluc.
70.9%

---

Test system: SFV-Rluc
Conditions: primary screening of chemical libraries; compounds tested at 50 µM
property: SFV replication % left

Worked cases, SFV replication % left given:
1) Cl.c1ccc(CN(CC2=NCCN2)c2ccccc2)cc1 [PC-014]; 38.7%
2) Oc1ccc(C=Cc2cc(O)cc(O)c2)cc1 [NC-086]; 103.4%
3) COc1ccc2oc(=O)cc(C)c2c1 [NC-119]; 66.6%
4) O=C(CO)c1ccccc1 [NC-047]; 129.7%
5) CN(C)c1cccc2c(S(=O)(=O)Cl)cccc12 [NC-032]; 4.6%
6) Cl.Cl.OCCN1CCN(CC/C=C2/c3ccccc3Sc3ccc(C(F)(F)F)cc32)CC1 [PC-082]; 92.6%
7) CNCCC=C1c2ccccc2CCc2ccccc21.Cl [PC-136]; 5.3%
8) CCCCNC(=O)NS(=O)(=O)c1ccc(N)cc1 [PC-033]; 83.9%
9) CC(=O)Nc1ccccc1 [PC-002]; 57.3%
10) Cc1ncc([N+](=O)[O-])n1CCO [PC-121]; 69.2%

Give its SFV replication % left value. Item: Cc1ccc(C)c(O)c1 [NC-029]
84.6%

Which SFV replication % left is reported for this compound? CCN(CC)CCCC(C)Nc1cc(/C=C/c2ccccc2Cl)nc2cc(Cl)ccc12 (stereo not shown) [NC-066]
45.8%

Dear colleague, I am looking for the recorded SFV replication % left of the following compound: CCCCNc1ccc(C(=O)OCCN(C)C)cc1.Cl [PC-034]
63.8%

// lookup SFV replication % left for CC(C)NCC(O)c1ccc(O)c(O)c1.Cl (stereo not shown) [PC-103]
112.5%

Fill blank: measured SFV replication % left of the compound COc1c2occc2cc2ccc(=O)oc12 [NC-129] is ____.
86.7%

May I ask what SFV replication % left has been recorded for O.O.O.O=c1ccc2cc(O[C@@H]3O[C@H](CO)[C@@H](O)[C@H](O)[C@H]3O)c(O)cc2o1.O=c1ccc2cc(O[C@@H]3O[C@H](CO)[C@@H](O)[C@H](O)[C@H]3O)c(O)cc2o1 [NC-127] ?
95.0%

What does the record list as SFV replication % left for O=C(O)/C=C/c1ccc(O)c(O)c1 [NC-010] ?
98.7%
